Biological target: T1, human SLITRK6 extracellular domain linked to his tag (human, UniProt Q9H5Y7 27-608)
T1 construct: extracellular domain; also called huSLITRK6; Hu SLITRK6; not shown: his tag
Assay: BLI binning on huSLITRK6-his; Ab1 = row antibody first, then Ab2 (competitor) = hu14G1-03
value-type: epitope binning signal

binder	measured-result
hu14G1-03 (antibody, V domains shown) VH: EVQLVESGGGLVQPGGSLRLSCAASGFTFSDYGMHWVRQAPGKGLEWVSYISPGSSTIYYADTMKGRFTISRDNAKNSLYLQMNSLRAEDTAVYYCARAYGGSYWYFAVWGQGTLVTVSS VL: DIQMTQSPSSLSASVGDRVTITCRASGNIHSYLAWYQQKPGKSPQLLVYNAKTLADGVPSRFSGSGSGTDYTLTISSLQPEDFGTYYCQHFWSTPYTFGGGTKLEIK	0.0192
